EC50 listing for selected compounds.
Molecular target: hGPR38R (Homo sapiens)
Sequence (O43193 whole entry): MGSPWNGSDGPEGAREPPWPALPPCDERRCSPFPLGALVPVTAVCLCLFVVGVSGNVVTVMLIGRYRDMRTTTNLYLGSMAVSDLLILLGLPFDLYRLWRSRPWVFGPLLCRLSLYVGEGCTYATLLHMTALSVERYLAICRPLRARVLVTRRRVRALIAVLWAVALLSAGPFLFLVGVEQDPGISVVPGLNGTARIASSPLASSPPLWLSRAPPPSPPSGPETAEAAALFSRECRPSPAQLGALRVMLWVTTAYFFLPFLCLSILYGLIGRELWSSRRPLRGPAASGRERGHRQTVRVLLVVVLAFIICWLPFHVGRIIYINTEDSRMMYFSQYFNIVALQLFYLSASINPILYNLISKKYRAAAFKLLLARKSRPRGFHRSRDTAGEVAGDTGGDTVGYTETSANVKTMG
Sequence (P09471 2-354 partner limits assumed): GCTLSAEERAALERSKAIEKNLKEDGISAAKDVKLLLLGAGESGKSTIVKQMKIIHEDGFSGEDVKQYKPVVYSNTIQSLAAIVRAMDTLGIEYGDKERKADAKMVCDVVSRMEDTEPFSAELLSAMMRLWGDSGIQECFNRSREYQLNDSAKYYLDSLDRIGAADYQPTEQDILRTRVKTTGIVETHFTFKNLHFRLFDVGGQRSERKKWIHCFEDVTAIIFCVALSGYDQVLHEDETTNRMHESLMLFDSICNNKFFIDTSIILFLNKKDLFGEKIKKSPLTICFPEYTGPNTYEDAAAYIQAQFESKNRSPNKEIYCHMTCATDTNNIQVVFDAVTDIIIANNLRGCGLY
Sequence (P62873 2-340 partner limits assumed): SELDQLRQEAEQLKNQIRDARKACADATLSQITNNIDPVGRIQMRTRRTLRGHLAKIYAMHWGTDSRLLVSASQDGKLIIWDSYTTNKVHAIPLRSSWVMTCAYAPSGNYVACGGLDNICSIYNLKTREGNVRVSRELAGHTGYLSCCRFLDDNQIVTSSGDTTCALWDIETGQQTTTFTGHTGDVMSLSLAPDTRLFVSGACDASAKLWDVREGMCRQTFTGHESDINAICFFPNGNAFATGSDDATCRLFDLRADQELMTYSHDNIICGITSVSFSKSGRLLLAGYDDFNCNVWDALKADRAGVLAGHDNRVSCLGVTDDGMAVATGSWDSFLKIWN
Sequence (P59768 2-68 partner limits assumed): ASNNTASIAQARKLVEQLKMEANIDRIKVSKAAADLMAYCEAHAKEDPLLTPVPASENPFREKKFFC
Test: GPR38 GTPγS functional agonist assay
Type: biochemical
Parameters: expressed in transfected cells; host or cells: HEK293 (transient transfection; P2 membrane fractions)
Experimental: The potencies and intrinsic activities of the compounds of this invention can also be determined according to the [35S]GTPγS functional assay which is described herein. […] The plate is incubated on a shaker at 25° C. for 30 min followed by centrifugation for 5 min at 1500 rpm. The plate is read between 3 and 6 h after completion of centrifuge run in a Wallac Microbeta counter on a 1 min normalised tritium count protocol. Data is analysed using a 4-parameter logistic equation. […]

[
  {
    "Compound": "C[C@@H]1CN(Cc2ccc(-n3ccnc3C(=O)N3CCC(Nc4cccc(F)c4)CC3)cc2)C[C@H](C)N1 [Example 21]",
    "Result": "< 3.16 µM"
  },
  {
    "Compound": "C[C@@H]1CN(Cc2ccc(-c3cccnc3C(=O)N3CCC(Nc4ccc(F)cc4)CC3)cc2)C[C@H](C)N1 [Example 2]",
    "Result": "< 3.16 µM"
  }
]

Now look at this entry.
Task: Tell me its EC50 given Cc1nc(C(=O)N2CCC(Nc3ccc(F)cc3)CC2)c(-c2ccc(CN3C[C@@H](C)N[C@@H](C)C3)cc2)s1 [Example 5] as the entry.
Result: < 3.16 µM

Data provenance: patent US20080312209A1
